TARGET_UNDER_TEST: UniProtKB P0DMS8
Sequence (P0DMS8 whole entry): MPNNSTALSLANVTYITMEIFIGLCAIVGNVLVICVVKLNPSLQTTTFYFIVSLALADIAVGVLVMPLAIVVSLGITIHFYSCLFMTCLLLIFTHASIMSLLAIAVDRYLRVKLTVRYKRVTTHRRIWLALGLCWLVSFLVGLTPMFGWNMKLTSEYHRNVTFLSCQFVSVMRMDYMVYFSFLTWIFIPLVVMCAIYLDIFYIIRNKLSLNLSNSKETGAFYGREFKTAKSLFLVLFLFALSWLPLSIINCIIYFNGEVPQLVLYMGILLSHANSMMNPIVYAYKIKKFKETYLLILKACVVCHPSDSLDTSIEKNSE
MEASURED_QUANTITY: AC50

Examples from the recorded data:
CC(=O)Oc1cccc2c1C(=O)c1c(OC(C)=O)cc(C(=O)O)cc1C2=O :: 17 µM
CNCCc1ccccn1 :: > 30 µM
CC(=O)[C@@]1(O)CC[C@H]2[C@@H]3C[C@H](C)C4=CC(=O)C=C[C@]4(C)[C@@]3(F)[C@@H](O)C[C@@]21C :: > 10 µM

Problem: Using the record for `COc1cccc2c1C(=O)c1c(O)c3c(c(O)c1C2=O)C[C@@](O)(C(=O)CO)C[C@@H]3O[C@H]1C[C@H](N)[C@H](O)[C@H](C)O1` , state its measured AC50.
Solution: > 30 µM

Problem: Output AC50 of CCOCC(O)COc1ccc(NC(=O)CC[S+](C)C)cc1 (centres undefined)
Solution: > 30 µM

Problem: Recall and state the measured AC50 for COC(=O)CCc1ccc(OCC(O)CNC(C)C)cc1 (centres undefined) .
Solution: > 30 µM

Problem: Name the recorded AC50 of the compound listed here: CCC(=O)c1ccc2c(c1)N(CC(C)N(C)C)c1ccccc1S2 (centres undefined)
Solution: > 10 µM

Problem: Let me know recorded AC50 for COc1cc(N)cn[n+]1-c1ccccc1 [AMEZINIUM METILSULFATE] , thanks.
Solution: > 30 µM

Problem: Please report AC50 for the following compound: CCN(CCO)CCCC(C)Nc1ccnc2cc(Cl)ccc12 (centres undefined) [HYDROXYCHLOROQUINE]
Solution: > 10 µM

###

TARGET_UNDER_TEST: Alpha-1A adrenergic receptor (Homo sapiens, UniProt P35348); further: assay procedure not described here
Sequence (P35348 whole entry): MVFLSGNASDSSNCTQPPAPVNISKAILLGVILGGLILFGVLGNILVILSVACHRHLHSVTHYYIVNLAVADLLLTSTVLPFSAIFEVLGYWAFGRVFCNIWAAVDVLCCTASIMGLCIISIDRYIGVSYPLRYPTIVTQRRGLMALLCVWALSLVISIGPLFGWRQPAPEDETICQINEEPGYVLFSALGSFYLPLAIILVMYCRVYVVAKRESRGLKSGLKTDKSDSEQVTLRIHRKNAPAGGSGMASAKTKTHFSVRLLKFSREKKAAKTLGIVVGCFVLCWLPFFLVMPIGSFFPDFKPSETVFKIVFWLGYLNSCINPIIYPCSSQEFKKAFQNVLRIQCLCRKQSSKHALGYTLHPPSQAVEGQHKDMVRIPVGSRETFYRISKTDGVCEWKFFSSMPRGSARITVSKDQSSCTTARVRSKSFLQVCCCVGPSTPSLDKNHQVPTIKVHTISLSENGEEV
MEASURED_QUANTITY: AC50

Known AC50 results, listed for orientation:
CN1C(=O)CN=C(c2ccccc2F)c2cc([N+](=O)[O-])ccc21 :: > 10 µM
CN1C2CCCC1CC(NC(=O)c1nn(C)c3ccccc13)C2 (configuration not stated) :: > 10 µM
O=C1CN=C(c2ccccc2Cl)c2cc([N+](=O)[O-])ccc2N1 :: > 10 µM
CC(NC(C)(C)C)C(=O)c1cccc(Cl)c1 (configuration not stated) :: > 10 µM
OCCOCCN1CCN(C(c2ccccc2)c2ccc(Cl)cc2)CC1 (configuration not stated) [HYDROXYZINE] :: 0.546 µM
CC(=O)Oc1ccccc1C(=O)O :: > 10 µM

Consider the additional compound presented here.
Problem: Tell me AC50 of `CCOC(=O)[C@H](CCc1ccccc1)N[C@@H](C)C(=O)N1Cc2ccccc2C[C@H]1C(=O)O` when tested on Alpha-1A adrenergic receptor (Homo sapiens, UniProt P35348). Further: assay procedure not described here.
Solution: > 10 µM

###

For reference, AC50 measured on Alpha-2B adrenergic receptor (Homo sapiens, UniProt P18089):

COc1cc(C(=O)NCc2ccc(OCCN(C)C)cc2)cc(OC)c1OC [TRIMETHOBENZAMIDE] :: > 30 µM
Cc1ccc(-c2ncc(Cl)cc2-c2ccc(S(C)(=O)=O)cc2)cn1 [ETORICOXIB] :: > 10 µM
CNC1(C)C2CCC(C2)C1(C)C (stereo not given) [MECAMYLAMINE] :: > 10 µM
Oc1cc(Cl)ccc1Oc1ccc(Cl)cc1Cl [TRICLOSAN] :: > 30 µM

Here is another molecule to look at.
Problem: State AC50 on Alpha-2B adrenergic receptor (Homo sapiens, UniProt P18089). Entry: C[C@H](Nc1ncnc2[nH]cnc12)c1cc2cccc(Cl)c2c(=O)n1-c1ccccc1 [DUVELISIB]
Sequence (P18089 whole entry): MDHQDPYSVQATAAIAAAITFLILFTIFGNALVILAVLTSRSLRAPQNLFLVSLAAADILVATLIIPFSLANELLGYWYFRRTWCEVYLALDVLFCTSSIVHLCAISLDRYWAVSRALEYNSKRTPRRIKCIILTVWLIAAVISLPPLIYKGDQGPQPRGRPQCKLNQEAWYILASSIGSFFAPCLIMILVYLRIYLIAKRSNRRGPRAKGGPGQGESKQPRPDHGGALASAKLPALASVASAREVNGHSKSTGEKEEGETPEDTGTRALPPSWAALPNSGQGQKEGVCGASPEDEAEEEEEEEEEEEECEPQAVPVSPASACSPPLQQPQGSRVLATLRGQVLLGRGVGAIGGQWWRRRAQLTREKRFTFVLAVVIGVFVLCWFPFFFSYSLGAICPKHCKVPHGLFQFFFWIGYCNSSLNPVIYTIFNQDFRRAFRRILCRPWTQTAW
Solution: > 30 µM

###

Measured AC50 values are reported for all entries that follow.
TARGET_UNDER_TEST: UniProtKB P25021
Sequence (P25021 whole entry): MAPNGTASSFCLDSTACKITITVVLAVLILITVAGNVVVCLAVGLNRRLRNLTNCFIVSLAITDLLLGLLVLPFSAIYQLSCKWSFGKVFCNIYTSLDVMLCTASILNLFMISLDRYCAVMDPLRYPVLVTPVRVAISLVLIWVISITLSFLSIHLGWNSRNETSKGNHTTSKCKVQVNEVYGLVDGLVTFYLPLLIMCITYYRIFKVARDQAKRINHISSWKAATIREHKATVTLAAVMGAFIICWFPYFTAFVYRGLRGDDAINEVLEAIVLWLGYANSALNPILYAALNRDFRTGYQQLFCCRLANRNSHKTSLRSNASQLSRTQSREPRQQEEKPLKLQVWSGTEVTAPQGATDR
Format: functional, cell-based

Sample records with AC50:
Nc1nc(Cl)nc2c1ncn2[C@@H]1O[C@H](CO)[C@@H](O)[C@@H]1F :: > 30 µM
CCN(CC)CCn1c(=O)c(Cc2ccc(OC)cc2)nc2ccccc21 :: > 30 µM
CC(=O)NC[C@H]1CN(c2ccc(N3CCOCC3)c(F)c2)C(=O)O1 :: > 30 µM
C[C@]12CCC(=O)C=C1C=C[C@@H]1[C@@H]2CC[C@@]2(C)[C@H]1CC[C@@]21CCC(=O)O1 :: > 30 µM
CN(C)CCN(Cc1ccccc1)c1ccccn1 :: > 10 µM

Problem: Quote AC50 with test system UniProtKB P25021 for COC(=O)CCc1ccc(OCC(O)CNC(C)C)cc1 (centres undefined)
Solution: > 30 µM

Problem: Please look at `Cc1ccc(O)c([C@H](CCN(C(C)C)C(C)C)c2ccccc2)c1` and tell me its recorded AC50 on UniProtKB P25021.
Solution: > 10 µM

Problem: # return AC50 of CCN1C(=O)NC(c2ccccc2)C1=O (centres undefined) (system: UniProtKB P25021)
Solution: > 30 µM

Problem: # return AC50 of `CCN(C(C)=O)c1cccc(-c2ccnc3c(C#N)cnn23)c1` (system: UniProtKB P25021)
Solution: > 10 µM

Problem: Return reported AC50 for target or system UniProtKB P25021, item CCC(=O)O[C@H](CC(=O)O)C[N+](C)(C)C [LEVOCARNITINE PROPIONATE] .
Solution: > 30 µM

###

Below, each of the compounds is paired with its reported AC50 value.
TARGET_UNDER_TEST: Alpha-2A adrenergic receptor (Homo sapiens, UniProt P08913); further: assay procedure not described here
Sequence (P08913 whole entry): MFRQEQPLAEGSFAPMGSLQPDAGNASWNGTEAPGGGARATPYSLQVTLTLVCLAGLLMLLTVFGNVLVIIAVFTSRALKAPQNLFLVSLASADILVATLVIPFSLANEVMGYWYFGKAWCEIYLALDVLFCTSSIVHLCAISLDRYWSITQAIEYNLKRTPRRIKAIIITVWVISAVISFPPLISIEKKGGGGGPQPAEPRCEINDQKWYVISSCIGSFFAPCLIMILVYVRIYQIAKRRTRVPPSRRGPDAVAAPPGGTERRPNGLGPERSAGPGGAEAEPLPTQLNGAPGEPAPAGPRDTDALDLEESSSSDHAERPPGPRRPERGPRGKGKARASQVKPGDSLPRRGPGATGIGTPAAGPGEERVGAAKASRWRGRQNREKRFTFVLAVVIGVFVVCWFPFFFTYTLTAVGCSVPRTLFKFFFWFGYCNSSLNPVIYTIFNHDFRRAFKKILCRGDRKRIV
Format: functional, cell-based

In the examples that follow, each entry is paired with its recorded AC50.
C[C@@H](O)[C@H]1C(=O)N2C(C(=O)O)=C(SCCN=CN)C[C@H]12 [IMIPENEM ANHYDROUS] :: > 300 µM
Cc1c(C)c2c(c(C)c1O)CCC(C)(COc1ccc(CC3SC(=O)NC3=O)cc1)O2 (stereo unspecified) :: > 30 µM
CCC1(C)CC(=O)NC1=O (stereo unspecified) [ETHOSUXIMIDE] :: > 10 µM

Problem: Tell me AC50 reported for CC1=C(/C=C/C(C)=C/C=C/C(C)=C/C(=O)Oc2c(C)c(C)c3c(c2C)CCC(C)(CCCC(C)CCCC(C)CCCC(C)C)O3)C(C)(C)CCC1 (stereo unspecified)
Solution: > 30 µM

Problem: Fill in reported AC50 for this entry: `Cc1nnc2n1-c1ccc(Cl)cc1C(c1ccccc1)=NC2`
Solution: > 10 µM

###

TARGET_UNDER_TEST: Muscarinic acetylcholine receptor M2 (Homo sapiens); further: assay procedure not described here
Sequence (P08172 whole entry): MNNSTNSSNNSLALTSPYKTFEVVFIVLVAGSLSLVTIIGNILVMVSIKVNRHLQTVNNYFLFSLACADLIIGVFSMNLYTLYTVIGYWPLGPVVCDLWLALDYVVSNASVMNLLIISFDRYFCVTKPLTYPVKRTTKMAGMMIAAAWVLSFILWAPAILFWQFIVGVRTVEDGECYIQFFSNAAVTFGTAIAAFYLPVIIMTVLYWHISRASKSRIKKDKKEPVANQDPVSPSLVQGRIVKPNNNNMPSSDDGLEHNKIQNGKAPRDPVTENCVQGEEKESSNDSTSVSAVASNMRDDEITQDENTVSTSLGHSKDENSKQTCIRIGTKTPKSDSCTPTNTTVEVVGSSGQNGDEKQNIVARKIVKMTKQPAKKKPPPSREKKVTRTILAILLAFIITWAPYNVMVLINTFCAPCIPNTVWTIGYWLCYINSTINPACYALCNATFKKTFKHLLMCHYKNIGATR
Type: functional, cell-based
MEASURED_QUANTITY: AC50

CCC1(CC)C(=O)NC(=O)N(C)C1=O [METHARBITAL] :: > 10 µM
O=C(C[S+]([O-])Cc1ccco1)NC/C=C\COc1cc(CN2CCCCC2)ccn1 (stereo unspecified) [LAFUTIDINE] :: > 10 µM
CCCCOC(=O)c1ccc(N)cc1 [BUTAMBEN] :: > 30 µM
O=C(c1ccccc1)c1ccc2n1CCC2C(=O)O (stereo unspecified) [KETOROLAC] :: > 30 µM

Field: next molecule
Problem: Report measured AC50; entry is CC[N+](CC)(CCNC(=O)C(=O)NCC[N+](CC)(CC)Cc1ccccc1Cl)Cc1ccccc1Cl [AMBENONIUM]
Solution: > 30 µM
